PROTOCOL_DETAILS: BSK_SAg_SRB: Viability Assessment in the BioMAP Diversity Plus: SAg Assay (AID 2283096);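 note: cells read one day after compound addition; hits may be either gain or loss of signal compared with DMSO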
EXPERIMENTAL_CONDITIONS: primary human HUVEC with PBMC
Calls of active or inactive are those of the source. Rule for the calls: active = hit-call score of the fitted dose curve at least 0.9, where 1 is the maximum; inactive = score below 0.9.
Labels: active, inactive

# COMPOUND, DISCRETE_LABEL
rows = [
    ("O=c1c2ccccc2oc2ccccc12", "inactive"),
    ("CCCCCCCCCCCCCCCC[N+](C)(C)CC", "active"),
    ("CCCCC(CC)COCC1CO1 (configuration not stated)", "inactive"),
    ("C=CC=CC=CCCCCC", "inactive"),
    ("COCc1c(C(C)C)nc(C(C)C)c(/C=C/[C@@H](O)C[C@@H](O)CC(=O)O)c1-c1ccc(F)cc1", "active"),
    ("Nc1ccc(N)c(Cl)c1", "active"),
    ("c1ccc2c(c1)ccc1ncccc12", "active"),
]
